Target: BRAF^V600E protein (Homo sapiens, UniProt P15056, V600E)
Sequence (P15056 whole entry V600E): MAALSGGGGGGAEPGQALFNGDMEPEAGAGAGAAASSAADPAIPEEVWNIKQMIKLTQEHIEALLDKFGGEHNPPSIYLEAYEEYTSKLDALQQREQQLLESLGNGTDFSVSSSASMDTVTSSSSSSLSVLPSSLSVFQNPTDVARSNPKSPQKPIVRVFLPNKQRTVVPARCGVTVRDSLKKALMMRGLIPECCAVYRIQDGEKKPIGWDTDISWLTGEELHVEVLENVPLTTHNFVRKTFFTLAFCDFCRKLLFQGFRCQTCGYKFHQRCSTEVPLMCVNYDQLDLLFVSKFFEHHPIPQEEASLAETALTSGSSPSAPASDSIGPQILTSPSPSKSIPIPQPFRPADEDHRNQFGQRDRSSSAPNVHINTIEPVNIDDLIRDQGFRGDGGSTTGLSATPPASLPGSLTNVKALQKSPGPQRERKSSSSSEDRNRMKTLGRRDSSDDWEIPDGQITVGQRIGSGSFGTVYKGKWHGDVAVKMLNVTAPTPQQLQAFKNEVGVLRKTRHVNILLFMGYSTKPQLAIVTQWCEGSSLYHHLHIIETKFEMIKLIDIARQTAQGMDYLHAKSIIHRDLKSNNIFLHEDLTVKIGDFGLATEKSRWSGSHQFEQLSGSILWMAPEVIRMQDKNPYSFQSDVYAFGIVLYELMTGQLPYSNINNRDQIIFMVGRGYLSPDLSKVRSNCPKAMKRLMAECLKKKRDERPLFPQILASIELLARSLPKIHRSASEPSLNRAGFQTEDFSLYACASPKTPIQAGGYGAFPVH
Assay: HiBiT cellular BRAF V600E degradation assay
Assay type: cell-based
Details: A375.10 cells (HiBiT tag knocked in at N-terminal of BRAF V600E), 24 h incubation; concentration at which 50% of total cellular BRAF V600E is degraded
Group membership follows DC50 per the scheme low band (below 5 nM), middle band (5 nM to below 10 nM), high band (10 nM or more)

Consider the worked cases shown below.
[[record]]
compound = "CCN(C)S(=O)(=O)Nc1cccc(C(=O)c2c[nH]c3ncc(-c4cnc(N5CCN(C(=O)CC6(O)CCN(c7ccc(NC8CCC(=O)NC8=O)cc7F)C6)CC5)nc4)cc23)c1F (centres unmarked) [Example 102]"
label = "middle band"

[[record]]
compound = "CCN(C)S(=O)(=O)Nc1ccc(F)c(C(=O)c2c[nH]c3ncc(-c4cnc(N5CCC(NC(=O)N6CCC(c7ccc(NC8CCC(=O)NC8=O)cn7)CC6)CC5)nc4)cc23)c1F (centres unmarked) [Example A40]"
label = "middle band"

[[record]]
compound = "CCN(C)S(=O)(=O)Nc1ccc(F)c(C(=O)c2c[nH]c3ncc(-c4ccc(N5CCN(C(=O)CCCN6CCC(c7ccc(NC8CCC(=O)NC8=O)cc7)CC6)CC5)nc4)cc23)c1F (centres unmarked) [Example A17]"
label = "high band"

[[record]]
compound = "CCN(C)S(=O)(=O)Nc1ccc(F)c(C(=O)c2c[nH]c3ncc(-c4cnc(N5CCN(C(=O)CN6CC[C@@H](c7ccc(NC8CCC(=O)NC8=O)cc7)C(F)(F)C6)CC5)nc4)cc23)c1F (some centres unmarked) [Example 54]"
label = "low band"

[[record]]
compound = "O=C1CCC(Nc2ccc(N3CCN(CC(=O)N4CCN(c5ccc(-c6cnc7[nH]cc(C(=O)c8c(F)ccc(NS(=O)(=O)N9CCCC9)c8F)c7c6)cn5)CC4)CC3)cc2)C(=O)N1 (centres unmarked) [Example A73]"
label = "middle band"


Where would CC(C)S(=O)(=O)Nc1ccc(F)c(C(=O)c2c[nH]c3ncc(-c4cnc(N5CCN(C(=O)CN6CCC(c7ccc(OC8CCC(=O)NC8=O)cc7)CC6)CC5)nc4)cc23)c1F (centres unmarked) [Example 7] land among the classes by reported DC50?
high band

// bin(item) where item = CCN(C)S(=O)(=O)Nc1ccc(F)c(C(=O)c2c[nH]c3ncc(-c4ccc(N5CCC(NC(=O)CN6CCC(c7ccc(NC8CCC(=O)NC8=O)cc7)CC6)CC5)nc4)cc23)c1F (centres unmarked) [Example A66, formic acid]
high band

Hello team, could you let me know which band the following compound falls into: CCN(C)S(=O)(=O)Nc1cc(F)cc(C(=O)c2c[nH]c3ncc(-c4ccc(N5CCN(C(=O)CC6(O)CCN(c7ccc(NC8CCC(=O)NC8=O)cc7F)CC6)CC5)nc4)cc23)c1F (centres unmarked) [Example 207]
low band

Hello team, could you let me know which band the following compound falls into: CCN(C)S(=O)(=O)Nc1ccc(F)c(C(=O)c2c[nH]c3ncc(-c4cnc(N5CCC(CC(=O)N6CCC(c7ccc(N8CCC(=O)NC8=O)cc7)CC6)CC5)nc4)cc23)c1F [Example A113]
high band

For the record CCN(C)S(=O)(=O)Nc1ccc(F)c(C(=O)c2c[nH]c3ncc(-c4cnc(N5CCN(C(=O)CN6CCC(N7CCN(C8CCC(=O)NC8=O)C(=O)C7)CC6)CC5)nc4)cc23)c1F (centres unmarked) [Example 37] , report the class its DC50 corresponds to.
high band

// return the class label for CCN(C)S(=O)(=O)Nc1ccc(F)c(C(=O)c2c[nH]c3ncc(-c4cnc(N5CCN(C(=O)CC6(O)CCN(c7ccc(NC8CCC(=O)NC8=O)cc7F)CC6)CC5)c(C#N)c4)cc23)c1F (centres unmarked) [Example 186]
middle band

Sort into band: CCN(C)S(=O)(=O)Nc1cccc(C(=O)c2c[nH]c3ncc(-c4cnc(N5CCN(C(=O)CC6(O)CCN(c7ccc(NC8CCC(=O)NC8=O)cn7)CC6)CC5)nc4)cc23)c1F (centres unmarked) [Example 105]
high band

Consider CCN(C)S(=O)(=O)Nc1ccc(F)c(C(=O)c2c[nH]c3ncc(-c4cnc(N5CCN(C(=O)CN6CCC(c7ccc(N[C@@H]8CCC(=O)NC8=O)cc7)CC6)CC5)nc4)cc23)c1F [Example 26] . To which DC50 class does it belong?
low band

Assign a bin to CCN(C)S(=O)(=O)Nc1ccc(F)c(C(=O)c2c[nH]c3ncc(-c4cnc(N5CCN(C(=O)CN6CCN(c7ccc(OC8CCC(=O)NC8=O)cn7)CC6)CC5)nc4)cc23)c1F (centres unmarked) [Example A68]
high band

Which class does CCN(C)S(=O)(=O)Nc1ccc(F)c(C(=O)c2c[nH]c3ncc(-c4cnc(N5CCN(C(=O)CC6(O)CCN(c7ccc(NC8CCC(=O)NC8=O)cc7Cl)CC6)CC5)nc4)cc23)c1F (centres unmarked) [Example 157] fall in?
middle band
